molecular target: T1, SARS-CoV-2 RBD-SD1 with murine IgG2a Fc part, produced in High Five cells (SARS-CoV-2, UniProt P0DTC2); assay: ELISA; conditions: both partners purified
T1 construct: source: High Five insect cells, transient transfection, purified (Protein A)
measure: EC50 (nM)
Write the answer as a number in nM, unit excluded.

Give the reported value of EC50 for this record: STE72-1G5 scFv-Fc (scFv, V domains shown, also called scFv-hFc; source: Expi293F, transient transfection, purified (Protein A)) VH: QVQLVQSGAEVKKPGASVKVSCKASGGTFSSYAISWVRQAPGQGLEWMGGIIPIFGTANYAQKFQGRVTITADESTSTAYMELSSLRSEDTAVYYCAVGGVQLWLTYWGQGTLVTVSS VL: ETTLTQSPGALSLSPGERATLSCRVSQSLSSNSLAWYQQKPGQAPRLLIYDTSIRATGIPDRFSGSGSGTDFTLTISRLEPEDFAVYYCHKYGSWPRTFGQGTKVEV
2.8

Supply reported EC50 belonging to this binder: STE72-4E12 IgG (antibody, V domains shown, source: Expi293F, transfected, purified (Protein A); copies: 2 + 2) VH: QVQLVQSGAEVKKPGASVKVSCKASGYTFTSYYMHWVRQAPGQGLEWMGIINPSGGSTSYAQKFQGRVTMTRDTSTSTVYMELSSLRSEDTAVYYCARDLSGGLDYWGQGTLVTVSS VL: ETTLTQSPATLSVSPGERVTLACRAGQTISSKLAWYRQKPGQAPSLLIYDASTRATGVPARFSGSGSGTEFTLTISSLQSEDFAVYYCQQYSDWPPTFGQGTKVEIK
1.6
